Values from PubChem BioAssay AID2060495

Each item that follows carries a reported viability, T/C.
Tested on: 521955-158-R2-J5-PDC complex spheroid viability
assay-name: Anticancer human tumor 521955-158-R2-J5-PDC patient-derived pancreatic carcinoma cell line growth inhibition [GQUAD]
setup-conditions: second compound 3.16 µM; first compound 3.16 µM; hits give low values

- compound: "CC(=O)O[C@H]1C(=O)[C@@]2(C)[C@H]([C@H](OC(=O)c3ccccc3)[C@]3(O)C[C@H](OC(=O)[C@H](O)[C@@H](NC(=O)c4ccccc4)c4ccccc4)C(C)=C1C3(C)C)[C@]1(OC(C)=O)CO[C@@H]1C[C@@H]2O + Cc1[nH]c2ccc(F)cc2c1-c1nc2c3cccnc3c3ncccc3c2[nH]1"
  unit-name: "%"
  viability, T/C: 34.9
- compound: "CC(C)n1c(=O)n(C)c2cnc3cc(F)c(-c4ccc(OCCCN5CCCCC5)nc4)cc3c21 + CN(C)c1ccc(Nc2c3ccc(NC(=O)CCN4CCCC4)cc3nc3cc(NC(=O)CCN4CCCC4)ccc23)cc1"
  unit-name: "%"
  viability, T/C: 55.1
- compound: "Nc1ccn(C2OC(CO)C(O)C2(F)F)c(=O)n1 (stereo not drawn) + Cc1[nH]c2ccc(F)cc2c1-c1nc2c3cccnc3c3ncccc3c2[nH]1"
  unit-name: "%"
  viability, T/C: 12.9

###

Tested on: 521955-158-R2-J5-PDC complex spheroid viability
assay-name: Anticancer human tumor 521955-158-R2-J5-PDC cell line growth inhibition [GQUAD]; active = viability on the fitted dose curve at most 10% of control; inactive = the rest;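 note: spheroids exposed to agents for one week before reading; 100% = DMSO vehicle control viability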
setup-conditions: second compound 0.0316 µM; first compound 0.00999 µM
Classes used: t for active, f for inactive

- compound: "Cn1ncnc1[C@H]1c2n[nH]c(=O)c3cc(F)cc(c23)N[C@@H]1c1ccc(F)cc1 + CN(C)c1ccc(Nc2c3ccc(NC(=O)CCN4CCCC4)cc3nc3cc(NC(=O)CCN4CCCC4)ccc23)cc1"
  class-assignment: "f"
- compound: "CCc1c2c(nc3ccc(O)cc13)-c1cc3c(c(=O)n1C2)COC(=O)[C@]3(O)CC + Cc1cnc(CNC(=O)c2c(=O)c3ccc(N4CCCN(C)CC4)nc3n3c2sc2ccccc23)cn1"
  class-assignment: "t"
- compound: "CC[C@@]1(O)C(=O)OCc2c1cc1n(c2=O)Cc2cc3c(CN(C)C)c(O)ccc3nc2-1 + CN(C)c1ccc(Nc2c3ccc(NC(=O)CCN4CCCC4)cc3nc3cc(NC(=O)CCN4CCCC4)ccc23)cc1"
  class-assignment: "f"

###

Each item that follows carries a reported viability, T/C.
System: 521955-158-R2-J5-PDC complex spheroid viability
assay-name: Anticancer human tumor 521955-158-R2-J5-PDC cell line growth inhibition [GQUAD];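 note: spheroids exposed to agents for one week before reading; 100% = DMSO vehicle control viability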
setup-conditions: second compound 0.1 µM; first compound 3.16 µM; hits give low values

- compound: "O=c1[nH]cc(F)c(=O)[nH]1 + Cc1[nH]c2ccc(F)cc2c1-c1nc2c3cccnc3c3ncccc3c2[nH]1"
  viability, T/C: "67%"
- compound: "C=CCn1c(=O)c2cnc(Nc3ccc(N4CCN(C)CC4)cc3)nc2n1-c1cccc(C(C)(C)O)n1 + Cc1cnc(CNC(=O)c2c(=O)c3ccc(N4CCCN(C)CC4)nc3n3c2sc2ccccc23)cn1"
  viability, T/C: "13.1%"
- compound: "COc1ncnc(C2CC2)c1-c1ncc2cnn(Cc3ccc(-c4nc(C(F)(F)F)cn4C(C)C)cc3)c2n1 + CN(C)c1ccc(Nc2c3ccc(NC(=O)CCN4CCCC4)cc3nc3cc(NC(=O)CCN4CCCC4)ccc23)cc1"
  viability, T/C: "148%"
- compound: "C=CCn1c(=O)c2cnc(Nc3ccc(N4CCN(C)CC4)cc3)nc2n1-c1cccc(C(C)(C)O)n1 + CN(C)c1ccc(Nc2c3ccc(NC(=O)CCN4CCCC4)cc3nc3cc(NC(=O)CCN4CCCC4)ccc23)cc1"
  viability, T/C: "14.3%"
- compound: "CC(=O)O[C@H]1C(=O)[C@@]2(C)[C@H]([C@H](OC(=O)c3ccccc3)[C@]3(O)C[C@H](OC(=O)[C@H](O)[C@@H](NC(=O)c4ccccc4)c4ccccc4)C(C)=C1C3(C)C)[C@]1(OC(C)=O)CO[C@@H]1C[C@@H]2O + Cc1cnc(CNC(=O)c2c(=O)c3ccc(N4CCCN(C)CC4)nc3n3c2sc2ccccc23)cn1"
  viability, T/C: "12%"
- compound: "C#Cc1c(F)ccc2cc(O)cc(-c3ncc4c(N5CC6CCC(C5)N6)nc(OCC56CCCN5CC(F)C6)nc4c3F)c12 (stereo not given) + Cc1[nH]c2ccc(F)cc2c1-c1nc2c3cccnc3c3ncccc3c2[nH]1"
  viability, T/C: "58.3%"
- compound: "C=CC(=O)N1CCN(c2nc(=O)n(-c3c(C)ccnc3C(C)C)c3nc(-c4c(O)cccc4F)c(F)cc23)C(C)C1 (stereo not given) + CN(C)c1ccc(Nc2c3ccc(NC(=O)CCN4CCCC4)cc3nc3cc(NC(=O)CCN4CCCC4)ccc23)cc1"
  viability, T/C: "122%"
- compound: "Nc1ccn(C2OC(CO)C(O)C2(F)F)c(=O)n1 (stereo not given) + Cc1[nH]c2ccc(F)cc2c1-c1nc2c3cccnc3c3ncccc3c2[nH]1"
  viability, T/C: "10.8%"
- compound: "CC1COCCN1c1cc(C2(O)CC3CCC(C2)O3)c2cnn(-c3ccn[nH]3)c2n1 (stereo not given) + CN(C)c1ccc(Nc2c3ccc(NC(=O)CCN4CCCC4)cc3nc3cc(NC(=O)CCN4CCCC4)ccc23)cc1"
  viability, T/C: "32.9%"
- compound: "CC(C)(O)C1CCC(Nc2ccc3ncc(-c4cccc(C(F)(F)F)c4)n3n2)CC1 (stereo not given) + CN(C)c1ccc(Nc2c3ccc(NC(=O)CCN4CCCC4)cc3nc3cc(NC(=O)CCN4CCCC4)ccc23)cc1"
  viability, T/C: "10.4%"
